Reference source: PubChem BioAssay (NCI)

System: CCRF-CEM leukemia
ASSAY_PROCEDURE: NCI tumour cell line growth inhibition, 48 h; in the data active = GI50 below about 0.43 µM; inactive = the rest
Log the outcome using a class from YES = active, NO = inactive

Task: Hi, do you know how NC(=O)c1c(NC(=O)c2ccc3c(c2)OCO3)sc2c1CCC(=O)C2 came out in this test?
Output: YES

Task: Hi, do you know how O=C(COc1ccc(/C=C2\Oc3ccccc3C2=O)cc1)Nc1nc2c(s1)CCCC2 came out in this test?
Output: YES

Task: Hi, do you know how O=C(NN1C(=O)CSC12CCCC2)c1[nH]c2ccc(Br)cc2c1-c1ccccc1 came out in this test?
Output: NO

Task: Hi, do you know how NC(=S)N/N=C/c1ncccc1N came out in this test?
Output: NO

Task: Hi, do you know how O=C(Nc1cccc(NC(=O)Nc2cc(C(F)(F)F)ccc2Cl)c1)Nc1cc(C(F)(F)F)ccc1Cl came out in this test?
Output: NO

Task: Hi, do you know how Cn1cc(C2=C(c3cccc(OCC(O)CO)c3)C(=O)NC2=O)c2ccccc21 (configuration not stated) came out in this test?
Output: NO

Task: Hi, do you know how CN(C)c1ccc2c(c1)OC(N)=C(C#N)C2c1ccc2c(c1)CCO2 (configuration not stated) came out in this test?
Output: YES

Task: Hi, do you know how O=[N+]([O-])c1cccc([As]=[As]c2cccc([N+](=O)[O-])c2)c1 (configuration not stated) came out in this test?
Output: YES

Task: Hi, do you know how COc1ccc(C2SC(C)C(=O)N2NC(=O)C(O)c2ccccc2)cc1OC (configuration not stated) came out in this test?
Output: NO

Task: Hi, do you know how CC[C@H](CO)Nc1nc(NCc2ccccc2)n2ncc(C(C)C)c2n1 came out in this test?
Output: NO

Task: Hi, do you know how CCCCN(CCCC)c1ccc(C(=N)c2ccc(N(CCCC)CCCC)cc2)cc1 came out in this test?
Output: NO

Task: Hi, do you know how O=c1nc2oc3ccc4ccccc4c3cc-2s1 came out in this test?
Output: NO
